Every entry's value here was drawn from ChEMBL document CHEMBL1201862.

System: MDA-N
Experiment: NCI tumour cell line growth inhibition, 48 h
Calls of active or inactive are those of the source. No stated cut-off is given here; in the data, active = GI50 up to about 1.1 µM and inactive = higher. Where a SMILES comes first, the peptide text is derived from it. The star is where a group is joined. Boc = CC(C)(C)OC(=O)*
REPORTED_METRIC: GI50

>  <COMPOUND>
CN(C)CCNC(=O)c1cccc(C(=O)Nc2ccccc2)c1[N+](=O)[O-]

>  <MEASURED_RESULT>
> 100 µM (inactive)

$$$$
>  <COMPOUND>
CCN1C(=O)/C(=C/Nc2ccccc2)S/C1=N/Nc1nc(-c2ccc(O)c(O)c2)cs1

>  <MEASURED_RESULT>
1.71 µM (inactive)

$$$$
>  <COMPOUND>
COc1ccc(C[N+]23C(CC[C@H]2c2ccccc2)CC[C@H]3c2ccccc2)cc1 (some centres undefined)

>  <MEASURED_RESULT>
13.2 µM (inactive)

$$$$

Each of the following entries comes with a recorded value; kindly state GI50 for each.
1. COc1ccc(C(F)(F)F)cc1NC(=O)O/N=C(/Cl)C(C)C
2. CCOC(=O)Cn1c(=O)ccn(COCCO)c1=O
3. COC(=O)C(C)NC(=O)C(CCSC)NC(=O)C(Cc1ccccc1)NC(=O)OC(C)(C)C (stereo not drawn) (Boc-Phe-Met-Ala-OMe; configuration not given here)
4. O=C(/C=C/c1ccccc1)CCN1CCN(CCC(=O)/C=C/c2ccccc2)CC1
5. COc1cc(/C=C2\C[C@H]3[C@@H]4CC=C5C[C@@H](O)CC[C@]5(C)[C@H]4CC[C@]3(C)C2=O)cc(OC)c1OC
6. COc1c(C)c(C/C=C(\C)CCCCO[Si](C(C)C)(C(C)C)C(C)C)c(OC)c2ccccc12

A)
["16.3 µM (inactive)", "> 100 µM (inactive)", "> 100 µM (inactive)", "2.19 µM (inactive)", "29.1 µM (inactive)", "> 100 µM (inactive)"]

---

System: BT-549
Assay: NCI tumour cell line growth inhibition, 48 h
Calls of active or inactive are those of the source. No stated cut-off is given here; in the data, active = GI50 up to about 1.1 µM and inactive = higher. Where a SMILES comes first, the peptide text is derived from it. The star is where a group is joined. Boc = CC(C)(C)OC(=O)*
REPORTED_METRIC: GI50

See these solved cases before continuing.
>  <COMPOUND>
COC(=O)C(C)NC(=O)C(CCSC)NC(=O)C(Cc1ccccc1)NC(=O)OC(C)(C)C (stereo not drawn) (Boc-Phe-Met-Ala-OMe; configuration not given here)

>  <REPORTED_METRIC>
GI50

>  <MEASURED_RESULT>
> 100 µM (inactive)

$$$$
>  <COMPOUND>
CSC1(CC(=O)N(C)C)C(=O)Nc2ccccc21 (stereo not given)

>  <REPORTED_METRIC>
GI50

>  <MEASURED_RESULT>
> 100 µM (inactive)

$$$$
>  <COMPOUND>
CN(C)CCNC(=O)c1cccc(C(=O)Nc2ccccc2)c1[N+](=O)[O-]

>  <REPORTED_METRIC>
GI50

>  <MEASURED_RESULT>
34 µM (inactive)

$$$$
>  <COMPOUND>
CC(C)NC(=O)OCc1c(COC(=O)NC(C)C)c(-c2ccc[n+](COC(=O)CC(C)(C)C)c2)n2c1CCC2

>  <REPORTED_METRIC>
GI50

>  <MEASURED_RESULT>
> 100 µM (inactive)

$$$$

Here is the next item to consider.
Q) I would be grateful if you could share the reported GI50 for "CC(C)(C)N1CSC(=S)N(Cc2ccco2)C1" .
A) 2.79 µM (inactive)
